Test system: MCF-7 Tam1
protocol_text: relative IC50 (midpoint of fitted logistic curve, plateau may be below 50% inhibition; CellTiter-Glo viability); higher = less potent
experimental_parameters: 4-OH-tamoxifen in medium 1 µM; 72 h
Where a name gives a salt, the structure may show the parent alone.
Parameter: relative IC50. Scope: all listed entries.

1) CCN(CC)CCNC(=O)c1c(C)[nH]c(/C=C2\C(=O)Nc3ccc(F)cc32)c1C; > 1 µM
2) CC1(C)CNc2cc(NC(=O)c3cccnc3NCc3ccncc3)ccc21; > 10 µM
3) CCc1c2c(nc3ccc(OC(=O)N4CCC(N5CCCCC5)CC4)cc13)-c1cc3c(c(=O)n1C2)COC(=O)[C@]3(O)CC; > 10 µM
4) COc1cc(Nc2ncc(F)c(Nc3ccc4c(n3)NC(=O)C(C)(C)O4)n2)cc(OC)c1OC [Tamatinib (R406)]; > 10 µM
5) Clc1ccc(C(c2ccccc2Cl)C(Cl)Cl)cc1 (stereo not given); > 10 µM

[in] Field request: relative IC50 | item: Oc1ncc(N(CCCl)CCCl)c(O)n1
[out] > 10 µM

[in] Please give the result for O=C(Nc1cccnc1)N1CCC(Cc2cccc(Oc3ccc(C(F)(F)F)cn3)c2)CC1 too.
[out] 1.97 µM

[in] Follow-up entry: CC(C)(C#N)c1cc(Cn2cncn2)cc(C(C)(C)C#N)c1
[out] > 10 µM

[in] Now the compound CC(O)(CS(=O)(=O)c1ccc(F)cc1)C(=O)Nc1ccc(C#N)c(C(F)(F)F)c1 (stereo not given) [Bicalutamide]
[out] > 10 µM

[in] One more compound: CO[C@H]1/C=C\C=C(/C)C(=O)NC2=CC(=O)C(NCCN(C)C)=C(C[C@@H](C)C[C@H](OC)[C@H](O)[C@@H](C)/C=C(\C)[C@@H]1OC(N)=O)C2=O
[out] 0.048 µM

[in] Further, for O=P(O)(O)C(O)(Cn1ccnc1)P(=O)(O)O ?
[out] > 10 µM

[in] Quick one: C=C1C[C@@H]2[C@H](CC[C@]3(C)C(=O)CC[C@@H]23)[C@@]2(C)C=CC(=O)C=C12
[out] > 10 µM

[in] Now the compound CC[C@@]1(O)C(=O)OCc2c1cc1n(c2=O)Cc2cc3ccccc3nc2-1
[out] 1.35 µM

[in] Input Oc1nc(-c2ccc(C(F)(F)F)cc2)nc2c1CSCC2
[out] > 10 µM

[in] Same question, Cn1c(CCCC(=O)O)nc2cc(N(CCCl)CCCl)ccc21 [Bendamustine (hydrochloride hydrate)] this time
[out] > 10 µM

[in] Next entry: CNC(=O)c1cc(Oc2ccc(NC(=O)Nc3ccc(Cl)c(C(F)(F)F)c3)cc2)ccn1
[out] > 1 µM

[in] Also need COc1cc2c(Oc3ccc4[nH]c(C)cc4c3F)ncnc2cc1OCCCN1CCCC1 , thanks.
[out] > 1 µM

[in] Now consider N#CCNC(=O)c1ccc(-c2ccnc(Nc3ccc(N4CCOCC4)cc3)n2)cc1 and answer again.
[out] 2.03 µM

[in] Another compound: O=C(CCBr)N1CCN(C(=O)CCBr)CC1
[out] > 10 µM

[in] Same question, CNC(=O)c1ccc(N2C(=S)N(c3ccc(C#N)c(C(F)(F)F)c3)C(=O)C2(C)C)cc1F [Enzalutamide (MDV 3100)] this time
[out] > 10 µM

[in] For O=C1c2c(O)ccc(O)c2C(=O)c2c(NCCNCCO)ccc(NCCNCCO)c21 then?
[out] > 1 µM

Values were extracted from the supplement of paper PMC4932681.
